Just for reference, the supplement of paper PMC10307832 is where these values come from.

# Tested on: COR-L 105
# assay remarks: relative viability (nuclei count vs DMSO), 5 days (fraction); higher = more cells survive
# stated conditions: first compound 0.01581 µM

| compound | subject of test | relative viability |
| --- | --- | --- |
| CC1(C)CCC(c2ccc(Cl)cc2)=C(CN2CCN(c3ccc(C(=O)NS(=O)(=O)c4ccc(N[C@H](CCN5CCOCC5)CSc5ccccc5)c(S(=O)(=O)C(F)(F)F)c4)cc3)CC2)C1 [Navitoclax] + O=C(CCCCCCC(=O)Nc1ccccc1)NO [Vorinostat] (partner 1 µM) | COR-L 105 | 0.946 |
| CC1(C)CCC(c2ccc(Cl)cc2)=C(CN2CCN(c3ccc(C(=O)NS(=O)(=O)c4ccc(N[C@H](CCN5CCOCC5)CSc5ccccc5)c(S(=O)(=O)C(F)(F)F)c4)cc3)CC2)C1 [Navitoclax] + CC(C)C[C@H](NC(=O)[C@H](Cc1ccccc1)NC(=O)c1cnccn1)B(O)O [Bortezomib] (partner 0.002 µM) | COR-L 105 | 1.31 |
| CC1(C)CCC(c2ccc(Cl)cc2)=C(CN2CCN(c3ccc(C(=O)NS(=O)(=O)c4ccc(N[C@H](CCN5CCOCC5)CSc5ccccc5)c(S(=O)(=O)C(F)(F)F)c4)cc3)CC2)C1 [Navitoclax] + CCNC(=O)c1noc(-c2cc(C(C)C)c(O)cc2O)c1-c1ccc(CN2CCOCC2)cc1 [Luminespib] (partner 0.01 µM) | COR-L 105 | 1.2 |
| CC1(C)CCC(c2ccc(Cl)cc2)=C(CN2CCN(c3ccc(C(=O)NS(=O)(=O)c4ccc(N[C@H](CCN5CCOCC5)CSc5ccccc5)c(S(=O)(=O)C(F)(F)F)c4)cc3)CC2)C1 [Navitoclax] + COc1cc2c(Oc3ccc(NC(=O)C4(C(=O)Nc5ccc(F)cc5)CC4)cc3F)ccnc2cc1OCCCN1CCOCC1 [Foretinib] (partner 0.25 µM) | COR-L 105 | 1.46 |
| CC1(C)CCC(c2ccc(Cl)cc2)=C(CN2CCN(c3ccc(C(=O)NS(=O)(=O)c4ccc(N[C@H](CCN5CCOCC5)CSc5ccccc5)c(S(=O)(=O)C(F)(F)F)c4)cc3)CC2)C1 [Navitoclax] + COc1cccc2cc(-c3nc([C@H]4CC[C@H](C(=O)O)CC4)n4ncnc(N)c34)[nH]c12 [OSI-027] (partner 0.5 µM) | COR-L 105 | 1.01 |

* * *

# Tested on: NCI-H1975
# assay remarks: relative viability (nuclei count vs DMSO), 5 days (fraction); higher = more cells survive
# stated conditions: first compound 0.253 µM
relative viability for assorted compounds

| compound | relative viability |
| --- | --- |
| Oc1nc(-c2ccc(C(F)(F)F)cc2)nc2c1CSCC2 [XAV939] + CCNC(=O)c1noc(-c2cc(C(C)C)c(O)cc2O)c1-c1ccc(CN2CCOCC2)cc1 [Luminespib] (partner 0.01 µM) | 0.246 |
| Oc1nc(-c2ccc(C(F)(F)F)cc2)nc2c1CSCC2 [XAV939] + N=C(N)NC(=N)NCCc1ccccc1 [Phenformin] (partner 250 µM) | 0.42 |
| C=C1C(=O)O[C@@H](CCCCCCCC)[C@@H]1C(=O)O [C-75] + CC(C)C[C@H](NC(=O)[C@H](Cc1ccccc1)NC(=O)c1cnccn1)B(O)O [Bortezomib] (partner 0.002 µM) | 0.395 |
| C=C1C(=O)O[C@@H](CCCCCCCC)[C@@H]1C(=O)O [C-75] + CS(=O)(=O)CCNCc1ccc(-c2ccc3ncnc(Nc4ccc(OCc5cccc(F)c5)c(Cl)c4)c3c2)o1 [Lapatinib] (partner 2 µM) | 1.04 |
| C=C1C(=O)O[C@@H](CCCCCCCC)[C@@H]1C(=O)O [C-75] + CC1(C)CCC(c2ccc(Cl)cc2)=C(CN2CCN(c3ccc(C(=O)NS(=O)(=O)c4ccc(N[C@H](CCN5CCOCC5)CSc5ccccc5)c(S(=O)(=O)C(F)(F)F)c4)cc3)CC2)C1 [Navitoclax] (partner 0.5 µM) | 1.1 |
| Oc1nc(-c2ccc(C(F)(F)F)cc2)nc2c1CSCC2 [XAV939] + CC(C)C[C@H](NC(=O)[C@H](Cc1ccccc1)NC(=O)c1cnccn1)B(O)O [Bortezomib] (partner 0.002 µM) | 0.352 |
| C=C1C(=O)O[C@@H](CCCCCCCC)[C@@H]1C(=O)O [C-75] + Cc1cc(Nc2cc(N3CCN(C)CC3)nc(Sc3ccc(NC(=O)C4CC4)cc3)n2)n[nH]1 [Tozasertib] (partner 0.1 µM) | 0.757 |
| Oc1nc(-c2ccc(C(F)(F)F)cc2)nc2c1CSCC2 [XAV939] + C[C@@H](Oc1cc(-c2cnn(C3CCNCC3)c2)cnc1N)c1c(Cl)ccc(F)c1Cl [Crizotinib] (partner 1 µM) | 0.666 |
| C=C1C(=O)O[C@@H](CCCCCCCC)[C@@H]1C(=O)O [C-75] + C[C@]1(O)C[C@@H](c2nc(-c3ccc4ccc(-c5ccccc5)nc4c3)c3c(N)nccn32)C1 [Linsitinib] (partner 1 µM) | 1.02 |
